Biological target: furin, P09958;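 further: purified furin at 1:10 enzyme:substrate in 50 mM HEPES pH 7.5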
Sequence (P09958 whole entry): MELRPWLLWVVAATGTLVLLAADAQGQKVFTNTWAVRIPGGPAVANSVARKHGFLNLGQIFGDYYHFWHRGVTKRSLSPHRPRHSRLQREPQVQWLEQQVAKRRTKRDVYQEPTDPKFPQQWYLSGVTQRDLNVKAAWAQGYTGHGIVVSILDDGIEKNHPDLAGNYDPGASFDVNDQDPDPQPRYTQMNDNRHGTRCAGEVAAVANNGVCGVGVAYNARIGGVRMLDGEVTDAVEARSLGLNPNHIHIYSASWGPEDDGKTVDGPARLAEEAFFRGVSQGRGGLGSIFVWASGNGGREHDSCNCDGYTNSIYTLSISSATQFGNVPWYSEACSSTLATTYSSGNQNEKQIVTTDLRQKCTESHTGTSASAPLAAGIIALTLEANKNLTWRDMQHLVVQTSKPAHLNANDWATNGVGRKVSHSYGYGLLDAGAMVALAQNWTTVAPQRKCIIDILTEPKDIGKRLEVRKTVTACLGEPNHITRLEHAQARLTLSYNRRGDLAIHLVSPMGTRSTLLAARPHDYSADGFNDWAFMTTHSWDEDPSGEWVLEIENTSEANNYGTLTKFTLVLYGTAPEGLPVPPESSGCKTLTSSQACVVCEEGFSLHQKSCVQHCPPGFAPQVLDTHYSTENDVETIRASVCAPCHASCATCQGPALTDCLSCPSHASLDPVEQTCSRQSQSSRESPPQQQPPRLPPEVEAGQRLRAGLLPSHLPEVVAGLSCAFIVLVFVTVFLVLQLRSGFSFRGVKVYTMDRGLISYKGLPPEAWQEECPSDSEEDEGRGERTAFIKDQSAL
Assay: furin cleavage Z-score vs untreated control; higher = more cleavage, active = 3.5 or more, inactive = 1 or less, 8 variable residues between constant flanks
Conditions: 7.5 min
This is one part of the list. How many sequences the whole screen found active is unknown.
Would you kindly list furin cleavage Z-score for each of these sequences?
Lab note: record the figure alone, no unit after it.

So what's the measured furin cleavage Z-score for this one? CAEVPCHVPSAGNASASA [HC2370]
-0.196

Param item = CAEVPCHRPVAGNASASA [HC2410] ; retrieve measured furin cleavage Z-score.
0.723

Consider the sequence CARPKRSKRQAGNASASA [FS-1068] and give its measured furin cleavage Z-score.
12.3

// furin cleavage Z-score lookup, key: CAEKERSKRSAGNASASA [FS-1626]
9.14

State the recorded furin cleavage Z-score for this entry: CARAKRSSKMAGNASASA [FS-3181]
5.7

Can you look up the measured furin cleavage Z-score of CATEHRVCRSAGNASASA [FS-508] for me?
3.96

Query: furin cleavage Z-score; subject: CARAPRDSDAAGNASASA [FS-2546]
-0.983

What value of measured furin cleavage Z-score is listed for CATTPCSGSCAGNASASA [HC1940] ?
-1.36

Bench note: what furin cleavage Z-score did CASKERSKRSAGNASASA [FS-1568] show?
12.6

Using the record for CAEVVFSTWVAGNASASA [HC126] , report its furin cleavage Z-score.
1.73

// lookup furin cleavage Z-score for CARSRRSAFHAGNASASA [FS-2819]
8.26

Which furin cleavage Z-score is listed for CALPFRSKRQAGNASASA [FS-684] ?
9.98

I am curious: what furin cleavage Z-score value has been reported for CAKVTFDRLQAGNASASA [HC1396] ?
-1.13

Return reported furin cleavage Z-score; argument: CAKVIRHKRQAGNASASA [FS-681]
12.7

Looking for the measured furin cleavage Z-score of CARKPKRKRWAGNASASA [FS-1400] , can you help?
8.47

Give its furin cleavage Z-score value. Item: CARSRRSYSCAGNASASA [FS-3238]
0.584

What value of measured furin cleavage Z-score is listed for CAPWNRKNRQAGNASASA [FS-1604] ?
-0.25

// furin cleavage Z-score lookup, key: CAELNRSKRSAGNASASA [FS-927]
10.6

What does the record list as furin cleavage Z-score for CARAPRSKVPAGNASASA [FS-2251] ?
0.556

What does the record list as furin cleavage Z-score for CAGCTTPCSGAGNASASA [HC1956] ?
-0.873
